target: UniProtKB Q9UPE1; experiment: KINOMEscan competition binding; conditions: compound 10.0 µM
Sequence (Q9UPE1 whole entry, looked up): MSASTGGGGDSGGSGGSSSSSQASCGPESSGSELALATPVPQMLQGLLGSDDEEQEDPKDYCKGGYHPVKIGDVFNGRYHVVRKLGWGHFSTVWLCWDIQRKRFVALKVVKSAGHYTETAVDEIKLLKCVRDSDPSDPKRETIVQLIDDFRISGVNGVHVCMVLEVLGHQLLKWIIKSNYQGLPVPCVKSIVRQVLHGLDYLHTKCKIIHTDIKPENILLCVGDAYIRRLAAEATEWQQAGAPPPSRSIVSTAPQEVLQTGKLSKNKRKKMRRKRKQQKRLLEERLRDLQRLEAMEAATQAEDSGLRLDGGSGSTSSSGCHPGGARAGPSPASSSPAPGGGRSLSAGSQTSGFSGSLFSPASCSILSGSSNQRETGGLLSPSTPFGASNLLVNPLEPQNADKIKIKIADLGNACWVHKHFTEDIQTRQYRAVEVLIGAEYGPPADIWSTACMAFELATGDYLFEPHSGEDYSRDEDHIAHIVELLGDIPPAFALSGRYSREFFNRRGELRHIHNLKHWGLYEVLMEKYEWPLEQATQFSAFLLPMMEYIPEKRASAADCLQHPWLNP
REPORTED_METRIC: kinase still bound, per cent of control (%)

Solved cases (2 shown):
INPUT_SMILES: Cc1cnc(-c2cnc(NCCNc3ccc(C#N)cn3)nc2-c2ccc(Cl)cc2Cl)[nH]1
MEASUREMENT: 100
--
INPUT_SMILES: COc1ccc(CNC(=O)Nc2ncc([N+](=O)[O-])s2)cc1
MEASUREMENT: 100

P = Cn1cc(C2=C(c3ccc(Cl)cc3Cl)C(=O)NC2=O)c2ccccc21
Q = O=C1Nc2cc(Br)ccc2/C1=C1/Nc2ccccc2/C1=N\O
Inquiry: Short answer wanted: higher kinase still bound, per cent of control, P or Q ? Indicate which entry you chose by stating its label.
Reply text: P
(P: 100%, Q: 0.25%)

###

biological target: SIK1 (human); assay: KINOMEscan competition binding; settings: compound 10.0 µM
REPORTED_METRIC: kinase still bound, per cent of control (%)

Example entries begin here.
INPUT_SMILES: Cn1cc(C2=C(c3ccc(Cl)cc3Cl)C(=O)NC2=O)c2ccccc21
UNIT_ANNOTATION: %
kinase still bound, per cent of control: 90

INPUT_SMILES: COc1ccc(CNC(=O)Nc2ncc([N+](=O)[O-])s2)cc1
UNIT_ANNOTATION: %
kinase still bound, per cent of control: 93

I = Cc1cnc(-c2cnc(NCCNc3ccc(C#N)cn3)nc2-c2ccc(Cl)cc2Cl)[nH]1
II = O=C1Nc2cc(Br)ccc2/C1=C1/Nc2ccccc2/C1=N\O
Inquiry: Would you kindly point out which of I and II has the smaller kinase still bound, per cent of control figure? Respond using the label that marks the chosen record.
Reply text: II
(II: 2.6%, I: 100%)

###

biological target: PIM2 (human); assay: KINOMEscan competition binding; conditions: compound 10.0 µM
REPORTED_METRIC: kinase still bound, per cent of control (%)

Study these solved cases before continuing.
INPUT_SMILES: Cc1cnc(-c2cnc(NCCNc3ccc(C#N)cn3)nc2-c2ccc(Cl)cc2Cl)[nH]1
kinase still bound, per cent of control (%): 89

INPUT_SMILES: Cn1cc(C2=C(c3ccc(Cl)cc3Cl)C(=O)NC2=O)c2ccccc21
kinase still bound, per cent of control (%): 84

1 = O=C1Nc2cc(Br)ccc2/C1=C1/Nc2ccccc2/C1=N\O
2 = COc1ccc(CNC(=O)Nc2ncc([N+](=O)[O-])s2)cc1
Inquiry: Select one: 1 or 2 . Criterion: greater recorded kinase still bound, per cent of control. API: response body contains the label of the selected item.
Reply text: 2

###

target: SIK2 (human); assay: KINOMEscan competition binding; details: compound 10.0 µM
REPORTED_METRIC: kinase still bound, per cent of control (%)

a = Cc1cnc(-c2cnc(NCCNc3ccc(C#N)cn3)nc2-c2ccc(Cl)cc2Cl)[nH]1
b = O=C1Nc2cc(Br)ccc2/C1=C1/Nc2ccccc2/C1=N\O
Inquiry: Response body: label of entry with the larger kinase still bound, per cent of control; valid values a , b . Give the label of your selection.
Reply text: a
(a: 100%, b: 8.2%)

###

target: FRK (human) (UniProt P42685); assay: KINOMEscan competition binding; conditions: compound 10.0 µM
REPORTED_METRIC: kinase still bound, per cent of control (%)

1 = Cn1cc(C2=C(c3ccc(Cl)cc3Cl)C(=O)NC2=O)c2ccccc21
2 = O=C1Nc2cc(Br)ccc2/C1=C1/Nc2ccccc2/C1=N\O
Inquiry: Could you point out whether the larger kinase still bound, per cent of control belongs to 1 or to 2 ? Bench note: the answer is the label of the chosen record.
Reply text: 1

###

target: EPHA8 (human) (UniProt P29322); test: KINOMEscan competition binding; details: compound 10.0 µM
Sequence (P29322 whole entry, looked up): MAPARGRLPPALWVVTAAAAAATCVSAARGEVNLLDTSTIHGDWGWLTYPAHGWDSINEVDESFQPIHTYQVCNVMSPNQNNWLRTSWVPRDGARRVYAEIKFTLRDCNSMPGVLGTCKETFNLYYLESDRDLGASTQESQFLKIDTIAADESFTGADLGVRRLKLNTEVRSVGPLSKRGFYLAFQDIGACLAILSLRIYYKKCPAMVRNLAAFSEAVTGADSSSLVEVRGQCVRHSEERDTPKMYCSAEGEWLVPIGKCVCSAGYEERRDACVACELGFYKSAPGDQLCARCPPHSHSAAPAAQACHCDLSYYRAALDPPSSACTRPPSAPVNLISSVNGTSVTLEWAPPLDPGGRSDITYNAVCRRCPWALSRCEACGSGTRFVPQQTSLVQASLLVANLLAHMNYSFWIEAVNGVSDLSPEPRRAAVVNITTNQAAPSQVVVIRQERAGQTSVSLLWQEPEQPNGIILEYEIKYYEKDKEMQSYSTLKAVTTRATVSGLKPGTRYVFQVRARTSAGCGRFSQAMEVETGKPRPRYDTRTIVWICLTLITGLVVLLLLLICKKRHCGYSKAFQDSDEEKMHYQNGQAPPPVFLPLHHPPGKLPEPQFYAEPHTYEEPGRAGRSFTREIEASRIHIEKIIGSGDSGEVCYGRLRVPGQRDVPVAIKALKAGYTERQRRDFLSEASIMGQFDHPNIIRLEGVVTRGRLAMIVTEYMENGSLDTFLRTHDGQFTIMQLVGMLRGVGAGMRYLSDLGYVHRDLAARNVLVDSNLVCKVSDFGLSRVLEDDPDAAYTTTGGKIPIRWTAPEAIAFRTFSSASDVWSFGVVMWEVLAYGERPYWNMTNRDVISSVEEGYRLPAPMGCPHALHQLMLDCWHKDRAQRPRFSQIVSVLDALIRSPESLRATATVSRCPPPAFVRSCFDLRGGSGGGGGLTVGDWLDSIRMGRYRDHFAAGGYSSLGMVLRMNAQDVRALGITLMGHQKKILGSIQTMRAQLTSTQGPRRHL
REPORTED_METRIC: kinase still bound, per cent of control (%)

INPUT_SMILES: Cn1cc(C2=C(c3ccc(Cl)cc3Cl)C(=O)NC2=O)c2ccccc21
kinase still bound, per cent of control [%]: 100
//
INPUT_SMILES: Cc1cnc(-c2cnc(NCCNc3ccc(C#N)cn3)nc2-c2ccc(Cl)cc2Cl)[nH]1
kinase still bound, per cent of control [%]: 100

P = COc1ccc(CNC(=O)Nc2ncc([N+](=O)[O-])s2)cc1
Q = O=C1Nc2cc(Br)ccc2/C1=C1/Nc2ccccc2/C1=N\O
Inquiry: Thinking about recorded kinase still bound, per cent of control values, which is higher, P or Q ? Field: selected label. Fill in the label of the entry you choose.
Reply text: P
(P: 100%, Q: 40%)

###

target: IKBKE (human) (UniProt Q14164); assay: KINOMEscan competition binding; details: compound 10.0 µM
Sequence (Q14164 whole entry, looked up): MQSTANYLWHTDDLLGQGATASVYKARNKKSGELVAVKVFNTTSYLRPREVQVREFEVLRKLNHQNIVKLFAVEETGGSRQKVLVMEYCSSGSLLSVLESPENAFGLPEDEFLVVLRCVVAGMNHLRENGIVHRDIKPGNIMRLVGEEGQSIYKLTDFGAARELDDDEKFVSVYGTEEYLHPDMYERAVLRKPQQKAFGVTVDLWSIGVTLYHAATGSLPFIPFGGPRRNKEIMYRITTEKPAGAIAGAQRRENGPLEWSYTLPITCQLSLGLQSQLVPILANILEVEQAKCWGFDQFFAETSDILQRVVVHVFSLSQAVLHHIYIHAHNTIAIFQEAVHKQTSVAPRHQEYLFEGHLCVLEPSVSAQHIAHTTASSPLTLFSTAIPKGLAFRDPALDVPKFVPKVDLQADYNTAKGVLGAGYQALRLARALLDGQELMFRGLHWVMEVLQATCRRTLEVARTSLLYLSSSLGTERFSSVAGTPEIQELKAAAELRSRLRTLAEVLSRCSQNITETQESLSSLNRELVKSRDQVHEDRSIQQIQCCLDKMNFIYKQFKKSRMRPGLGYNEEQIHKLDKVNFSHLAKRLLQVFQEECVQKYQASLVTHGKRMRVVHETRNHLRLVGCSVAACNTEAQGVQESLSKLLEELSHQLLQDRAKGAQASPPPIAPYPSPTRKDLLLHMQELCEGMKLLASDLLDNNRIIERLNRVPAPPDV
REPORTED_METRIC: kinase still bound, per cent of control (%)

Worked set:
INPUT_SMILES: COc1ccc(CNC(=O)Nc2ncc([N+](=O)[O-])s2)cc1
MEASUREMENT: 88
//
INPUT_SMILES: Cn1cc(C2=C(c3ccc(Cl)cc3Cl)C(=O)NC2=O)c2ccccc21
MEASUREMENT: 85

I = O=C1Nc2cc(Br)ccc2/C1=C1/Nc2ccccc2/C1=N\O
II = Cc1cnc(-c2cnc(NCCNc3ccc(C#N)cn3)nc2-c2ccc(Cl)cc2Cl)[nH]1
Inquiry: Which shows the larger kinase still bound, per cent of control value: I or II ? Record your answer as the label of the chosen record.
Reply text: II

###

target: STK4 (human) (UniProt Q13043); experiment: KINOMEscan competition binding; settings: compound 10.0 µM
Sequence (Q13043 whole entry, looked up): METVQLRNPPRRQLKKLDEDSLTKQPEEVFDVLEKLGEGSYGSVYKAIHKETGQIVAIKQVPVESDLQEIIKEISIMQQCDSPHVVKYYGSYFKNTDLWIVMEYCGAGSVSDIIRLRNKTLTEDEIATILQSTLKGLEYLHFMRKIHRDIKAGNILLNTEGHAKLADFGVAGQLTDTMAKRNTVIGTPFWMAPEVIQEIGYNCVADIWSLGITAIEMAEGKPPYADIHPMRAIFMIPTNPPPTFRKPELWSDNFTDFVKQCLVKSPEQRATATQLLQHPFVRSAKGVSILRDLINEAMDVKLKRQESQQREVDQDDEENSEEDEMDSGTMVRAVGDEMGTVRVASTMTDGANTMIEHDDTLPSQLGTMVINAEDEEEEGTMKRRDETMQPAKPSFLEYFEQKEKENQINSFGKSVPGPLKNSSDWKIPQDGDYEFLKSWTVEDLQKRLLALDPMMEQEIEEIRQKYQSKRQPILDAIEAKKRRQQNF
REPORTED_METRIC: kinase still bound, per cent of control (%)

See these solved cases before continuing.
INPUT_SMILES: O=C1Nc2cc(Br)ccc2/C1=C1/Nc2ccccc2/C1=N\O
ASSAY_SYSTEM: STK4 (human) (UniProt Q13043)
kinase still bound, per cent of control [%]: 6.5
--
INPUT_SMILES: Cc1cnc(-c2cnc(NCCNc3ccc(C#N)cn3)nc2-c2ccc(Cl)cc2Cl)[nH]1
ASSAY_SYSTEM: STK4 (human) (UniProt Q13043)
kinase still bound, per cent of control [%]: 100

P = COc1ccc(CNC(=O)Nc2ncc([N+](=O)[O-])s2)cc1
Q = Cn1cc(C2=C(c3ccc(Cl)cc3Cl)C(=O)NC2=O)c2ccccc21
Inquiry: I'm curious whether P or Q has the smaller kinase still bound, per cent of control number. Which is it? State your choice using its label.
Reply text: Q
(Q: 62%, P: 100%)

###

target: TESK1 (human) (UniProt Q15569); experiment: KINOMEscan competition binding; conditions: compound 10.0 µM
REPORTED_METRIC: kinase still bound, per cent of control (%)

Here's what some known entries look like.
INPUT_SMILES: COc1ccc(CNC(=O)Nc2ncc([N+](=O)[O-])s2)cc1
MEASUREMENT: 100

INPUT_SMILES: Cn1cc(C2=C(c3ccc(Cl)cc3Cl)C(=O)NC2=O)c2ccccc21
MEASUREMENT: 100

P = O=C1Nc2cc(Br)ccc2/C1=C1/Nc2ccccc2/C1=N\O
Q = Cc1cnc(-c2cnc(NCCNc3ccc(C#N)cn3)nc2-c2ccc(Cl)cc2Cl)[nH]1
Inquiry: Compare kinase still bound, per cent of control: is it lower for P or for Q ? Answer by stating the label of the chosen item.
Reply text: P

###

test system: KIT (human), P10721 [V559D]; test: KINOMEscan competition binding; settings: compound 10.0 µM
Sequence (P10721 whole entry V559D, looked up): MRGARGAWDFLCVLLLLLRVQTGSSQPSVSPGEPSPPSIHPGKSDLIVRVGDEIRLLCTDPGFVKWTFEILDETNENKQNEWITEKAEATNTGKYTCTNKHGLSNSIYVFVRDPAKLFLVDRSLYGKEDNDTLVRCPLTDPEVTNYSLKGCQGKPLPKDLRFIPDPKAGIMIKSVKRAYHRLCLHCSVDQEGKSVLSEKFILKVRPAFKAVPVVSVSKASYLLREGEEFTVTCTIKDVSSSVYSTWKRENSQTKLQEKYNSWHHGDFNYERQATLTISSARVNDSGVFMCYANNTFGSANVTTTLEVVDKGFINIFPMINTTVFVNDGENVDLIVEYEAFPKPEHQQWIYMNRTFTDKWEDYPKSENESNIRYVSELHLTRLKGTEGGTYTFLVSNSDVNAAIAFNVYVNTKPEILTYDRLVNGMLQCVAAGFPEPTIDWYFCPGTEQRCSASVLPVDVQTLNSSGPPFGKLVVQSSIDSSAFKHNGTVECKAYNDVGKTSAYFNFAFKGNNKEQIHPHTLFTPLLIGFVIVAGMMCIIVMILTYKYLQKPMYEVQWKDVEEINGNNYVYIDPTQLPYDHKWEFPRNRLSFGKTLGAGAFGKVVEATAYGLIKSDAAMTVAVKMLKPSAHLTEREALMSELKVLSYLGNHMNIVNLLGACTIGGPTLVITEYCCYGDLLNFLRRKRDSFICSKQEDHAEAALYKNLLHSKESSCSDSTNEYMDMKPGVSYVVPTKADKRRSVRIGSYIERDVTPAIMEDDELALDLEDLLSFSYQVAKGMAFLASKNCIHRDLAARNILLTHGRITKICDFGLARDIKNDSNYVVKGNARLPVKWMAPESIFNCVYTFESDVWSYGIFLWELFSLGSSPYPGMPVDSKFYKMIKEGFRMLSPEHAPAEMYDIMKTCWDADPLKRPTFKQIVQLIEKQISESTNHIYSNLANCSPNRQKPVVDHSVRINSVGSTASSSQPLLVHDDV
REPORTED_METRIC: kinase still bound, per cent of control (%)

The following compounds have reported results that may help.
INPUT_SMILES: O=C1Nc2cc(Br)ccc2/C1=C1/Nc2ccccc2/C1=N\O
UNIT_ANNOTATION: %
MEASUREMENT: 0
//
INPUT_SMILES: Cn1cc(C2=C(c3ccc(Cl)cc3Cl)C(=O)NC2=O)c2ccccc21
UNIT_ANNOTATION: %
MEASUREMENT: 87

P = Cc1cnc(-c2cnc(NCCNc3ccc(C#N)cn3)nc2-c2ccc(Cl)cc2Cl)[nH]1
Q = COc1ccc(CNC(=O)Nc2ncc([N+](=O)[O-])s2)cc1
Inquiry: Decide: P or Q , by lowest recorded kinase still bound, per cent of control. Identify your selection by its label.
Reply text: Q

###

target: RIPK4 (human) (UniProt P57078); assay: KINOMEscan competition binding; settings: compound 10.0 µM
Sequence (P57078 whole entry, looked up): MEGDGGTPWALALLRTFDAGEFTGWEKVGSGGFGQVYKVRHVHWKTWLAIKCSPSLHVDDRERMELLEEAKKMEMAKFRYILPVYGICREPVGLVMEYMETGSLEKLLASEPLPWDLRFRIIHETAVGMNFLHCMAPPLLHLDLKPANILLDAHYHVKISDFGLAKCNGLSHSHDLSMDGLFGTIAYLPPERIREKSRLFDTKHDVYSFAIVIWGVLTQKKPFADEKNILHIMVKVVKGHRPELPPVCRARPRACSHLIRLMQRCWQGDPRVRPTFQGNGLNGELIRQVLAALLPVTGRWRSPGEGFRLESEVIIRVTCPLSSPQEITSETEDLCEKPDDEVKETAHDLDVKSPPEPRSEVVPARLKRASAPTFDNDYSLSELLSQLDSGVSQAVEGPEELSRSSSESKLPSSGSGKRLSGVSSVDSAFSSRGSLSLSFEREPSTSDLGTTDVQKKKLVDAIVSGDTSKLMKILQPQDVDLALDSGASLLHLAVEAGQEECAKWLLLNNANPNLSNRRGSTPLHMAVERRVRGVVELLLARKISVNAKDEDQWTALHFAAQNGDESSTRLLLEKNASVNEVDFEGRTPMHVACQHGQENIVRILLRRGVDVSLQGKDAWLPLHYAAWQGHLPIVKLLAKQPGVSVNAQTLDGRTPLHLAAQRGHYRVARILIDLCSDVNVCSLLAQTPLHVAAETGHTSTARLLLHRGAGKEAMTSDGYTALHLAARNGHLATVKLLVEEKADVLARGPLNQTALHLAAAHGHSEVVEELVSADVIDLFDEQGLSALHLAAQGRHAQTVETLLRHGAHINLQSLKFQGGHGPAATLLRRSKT
REPORTED_METRIC: kinase still bound, per cent of control (%)

Some compounds with recorded kinase still bound, per cent of control:
INPUT_SMILES: Cn1cc(C2=C(c3ccc(Cl)cc3Cl)C(=O)NC2=O)c2ccccc21
kinase still bound, per cent of control / %: 100
//
INPUT_SMILES: Cc1cnc(-c2cnc(NCCNc3ccc(C#N)cn3)nc2-c2ccc(Cl)cc2Cl)[nH]1
kinase still bound, per cent of control / %: 100

A = COc1ccc(CNC(=O)Nc2ncc([N+](=O)[O-])s2)cc1
B = O=C1Nc2cc(Br)ccc2/C1=C1/Nc2ccccc2/C1=N\O
Inquiry: Hi there! Just curious which has the higher kinase still bound, per cent of control between A and B . Answer = label.
Reply text: A
